Protein target, amino acids: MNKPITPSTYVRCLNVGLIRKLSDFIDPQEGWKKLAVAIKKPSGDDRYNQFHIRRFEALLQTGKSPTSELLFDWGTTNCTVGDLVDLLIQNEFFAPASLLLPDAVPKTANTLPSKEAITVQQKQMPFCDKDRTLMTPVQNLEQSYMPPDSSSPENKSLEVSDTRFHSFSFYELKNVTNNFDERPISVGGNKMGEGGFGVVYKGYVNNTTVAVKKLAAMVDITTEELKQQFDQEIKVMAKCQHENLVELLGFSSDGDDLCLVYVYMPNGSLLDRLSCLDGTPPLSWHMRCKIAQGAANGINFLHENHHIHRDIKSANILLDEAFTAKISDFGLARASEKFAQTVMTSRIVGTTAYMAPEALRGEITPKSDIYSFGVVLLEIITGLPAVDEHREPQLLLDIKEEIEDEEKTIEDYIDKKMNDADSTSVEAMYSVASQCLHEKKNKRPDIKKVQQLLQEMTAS
assay.endpoint: pIC50
Scale: negative log10 of molar concentration, which is what pIC50 denotes.

pIC50 recorded for this compound, CC(Sc1nc2c(cnn2-c2cccc(Cl)c2)c(=O)[nH]1)C(N)=O (stereo not shown) , is 5.85
